Provide the recorded IC50 for the entries that follow.
- subject.of.test: full-length human PDE4B2 isozyme (Homo sapiens, UniProt Q07343)
- Construct: The full-length human PDE4B2 isozyme; His6 (N); TEV cleavage site (N); made in house; host or cells: baculovirus infected insect cells (unpurified lysate)
- Sequence (Q07343 1-564 isoform Q07343-2): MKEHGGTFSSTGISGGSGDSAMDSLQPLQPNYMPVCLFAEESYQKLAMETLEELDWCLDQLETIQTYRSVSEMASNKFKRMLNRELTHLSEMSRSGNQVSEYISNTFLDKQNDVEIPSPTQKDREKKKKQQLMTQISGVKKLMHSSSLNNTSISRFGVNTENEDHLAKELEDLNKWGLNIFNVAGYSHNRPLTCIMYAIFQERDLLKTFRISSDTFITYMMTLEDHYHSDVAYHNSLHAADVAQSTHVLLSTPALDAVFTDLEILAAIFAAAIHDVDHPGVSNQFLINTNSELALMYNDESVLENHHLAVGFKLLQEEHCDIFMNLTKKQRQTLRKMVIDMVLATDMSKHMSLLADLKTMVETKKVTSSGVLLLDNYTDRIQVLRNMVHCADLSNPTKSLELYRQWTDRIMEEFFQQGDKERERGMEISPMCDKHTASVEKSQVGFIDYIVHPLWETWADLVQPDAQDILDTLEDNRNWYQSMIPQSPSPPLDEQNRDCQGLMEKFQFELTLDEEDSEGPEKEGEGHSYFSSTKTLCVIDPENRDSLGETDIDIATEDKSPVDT
- assay.comment: PDE4 IC50 determination by Scintillation Proximity Assay, PDE4B2
- Format: biochemical
- condition.details: first part of Table 2B (2-1 to 2-22); read-out: IC 50 vs. indicated assay PDE4B2

line.notation: Nc1nc(NC2CCCC2)sc1C(=O)c1cc(-c2ccccc2)no1
quantity: IC50
reading: < 10 µM

Please give IC50 for each item listed below.
1. Nc1nc(Nc2ccccc2F)sc1C(=O)c1cc(-c2ccccc2)no1
2. Nc1nc(NC2CCCC2)sc1C(=O)c1cc(-c2ccccc2)cs1

Result string:
1. < 10 µM
2. < 10 µM

----------
- subject.of.test: PDE4D (Homo sapiens, UniProt Q08499)
- Construct: PDE4D: The catalytic domain of human PDE4B from S3 16-V692; His6 (N); thrombin cleavage site (N); made in house; host or cells: E. coli
- Sequence (Q08499 380-756): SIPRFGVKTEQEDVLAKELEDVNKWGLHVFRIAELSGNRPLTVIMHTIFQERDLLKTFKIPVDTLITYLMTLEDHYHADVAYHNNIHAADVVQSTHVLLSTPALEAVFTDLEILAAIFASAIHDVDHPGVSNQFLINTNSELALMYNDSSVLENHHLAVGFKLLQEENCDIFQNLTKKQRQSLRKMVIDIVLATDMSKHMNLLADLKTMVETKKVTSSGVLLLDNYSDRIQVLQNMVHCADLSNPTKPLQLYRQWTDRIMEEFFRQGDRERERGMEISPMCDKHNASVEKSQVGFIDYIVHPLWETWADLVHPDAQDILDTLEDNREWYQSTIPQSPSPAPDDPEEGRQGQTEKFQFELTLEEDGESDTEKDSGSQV
- assay.comment: PDE4 IC50 determination by Scintillation Proximity Assay, PDE4D
- Format: biochemical
quantity: IC50

Query string: Entry "COc1ccc(C(=O)c2sc(NC3CCCC3)nc2N)cc1" : reported IC50 = ?
Result string: < 10 µM

----------
- subject.of.test: PDE4B: The catalytic domain of human PDE4B from S152-S528 (Homo sapiens)
- Construct: His6 (N); thrombin cleavage site (N); made in house; host or cells: E. coli
- Sequence (Q07343 with tags, fused parts or gaps): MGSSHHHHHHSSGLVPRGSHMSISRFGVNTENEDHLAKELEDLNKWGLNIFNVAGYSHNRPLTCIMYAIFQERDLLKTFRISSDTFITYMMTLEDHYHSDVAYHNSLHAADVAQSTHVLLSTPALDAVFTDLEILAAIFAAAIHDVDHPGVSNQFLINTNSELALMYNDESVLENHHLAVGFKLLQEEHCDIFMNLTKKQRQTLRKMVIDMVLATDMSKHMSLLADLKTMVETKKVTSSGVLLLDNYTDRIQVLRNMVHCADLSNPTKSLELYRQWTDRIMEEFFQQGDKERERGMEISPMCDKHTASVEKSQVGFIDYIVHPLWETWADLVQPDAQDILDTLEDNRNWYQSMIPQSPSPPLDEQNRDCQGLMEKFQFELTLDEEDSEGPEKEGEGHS
- assay.comment: PDE4 IC50 determination by Scintillation Proximity Assay, PDE4B
- Format: biochemical
- condition.details: Table 1B, Formula I compounds; read-out: IC50 PDE4B
pIC50: −log10 of the molar value.
Provide the recorded pIC50 for the entries that follow.

The examples below pair each entry with its known result.
compound: N#Cc1c(Nc2ccc(C(=O)NC3CCOC3=O)cc2)sc(C(=O)c2cccc(Cl)c2)c1N (stereo not shown)
pIC50: > 5.00
//
compound: Cc1c(C(=O)c2sc(NCC3CCCO3)c(C#N)c2N)cnn1-c1ccccc1 (stereo not shown)
pIC50: < 5.00
//
compound: Cc1c(NC2CCCC2)sc(C(=O)c2cc(-c3ccccc3)no2)c1N
pIC50: > 5.00

Query string: Entry "N#Cc1c(NC2CCCC2)sc(C(=O)c2cc(-c3ccc(N)cc3)no2)c1N" : reported pIC50 = ?
Result string: > 5.00

----------
- subject.of.test: PDE4D (Homo sapiens)
- Construct: PDE4D: The catalytic domain of human PDE4B from S3 16-V692; His6 (N); thrombin cleavage site (N); made in house; host or cells: E. coli
- assay.comment: PDE4 IC50 determination by Scintillation Proximity Assay, PDE4D
- Type: biochemical
- condition.details: Table 1B, Formula I compounds; read-out: IC50 PDE4D
quantity: IC50

The examples below pair each entry with its known result.
compound: CC(C)CNc1sc(C(=O)c2cc(-c3ccccc3)no2)c(N)c1C(N)=O [Compound 1-236]
IC50: < 10 µM
--
compound: CC(C)Nc1sc(C(=O)c2cc(-c3ccc(Cl)cc3)no2)c(N)c1C#N [Compound 1-212]
IC50: > 10 µM
--
compound: COc1ccc(Nc2sc(C(=O)c3ccccc3Cl)c(N)c2C#N)cc1 [Compound 1-110]
IC50: < 10 µM
--
compound: N#Cc1c(Nc2ccc(C(=O)NC3CCOC3=O)cc2)sc(C(=O)c2cccc(Cl)c2)c1N (stereo not shown) [Compound 1-119]
IC50: < 10 µM
--
compound: COC(=O)c1ccccc1Nc1sc(C(=O)c2ccccn2)c(N)c1C#N [Compound 1-148]
IC50: < 10 µM

Please give IC50 for each item listed below.
1. N#Cc1c(NC2CCCC2)sc(C(=O)c2ccccc2)c1N [Compound 1-171]
2. COc1ccc(Nc2sc(C(=O)c3c(-c4ccccc4)noc3C)c(N)c2C#N)cc1 [Compound 1-129]
3. N#Cc1c(NCCN2CCCCC2)sc(C(=O)c2ccc(-c3ccccn3)s2)c1N [Compound 1-70]
4. COC(=O)C(CC(C)C)Nc1sc(C(=O)c2ccccc2Cl)c(N)c1C#N (stereo not shown) [Compound 1-111]
5. CCc1ccccc1Nc1sc(C(=O)c2cnn(-c3ccccc3)c2C)c(N)c1C#N [Compound 1-58]
6. NC(=O)c1c(Nc2ccccc2)sc(C(=O)c2ccccc2)c1N [Compound 1-12]
7. N#Cc1c(NCCN2CCCCC2)sc(C(=O)c2cc(-c3ccc(Cl)c(Cl)c3)no2)c1N [Compound 1-83]
8. Cc1ccc(C(=O)c2sc(NCCN3CCCCC3)c(C#N)c2N)c(C)c1 [Compound 1-38]

Result string:
["< 10 µM", "< 10 µM", "< 10 µM", "< 10 µM", "< 10 µM", "> 10 µM", "> 10 µM", "> 10 µM"]

Please give IC50 for each item listed below.
1. CCC(CC)Nc1sc(C(=O)c2ccc(Oc3ccccc3)cc2)c(N)c1C#N [Compound 1-229]
2. CCOC(=O)c1cc(C(=O)c2sc(NCCN3CCCCC3)c(C#N)c2N)on1 [Compound 1-135]
3. COc1ccc(C(=O)c2sc(Nc3cccc(SC)c3)c(C#N)c2N)cc1 [Compound 1-177]
4. COc1ccc(Nc2sc(C(=O)c3ccc(C)cc3C)c(N)c2C#N)cc1 [Compound 1-85]

Result string:
< 10 µM
< 10 µM
< 10 µM
< 10 µM

Please give IC50 for each item listed below.
1. COc1ccc(CNc2sc(C(=O)c3cnn(-c4ccccc4)c3C)c(N)c2C#N)cc1OC [Compound 1-54]
2. CC(C)NC(=O)c1cc(C(=O)c2sc(NC3CCCC3)c(C#N)c2N)on1 [Compound 1-189]
3. CC(C)Nc1sc(C(=O)c2ccc(Cl)c(Cl)c2)c(N)c1C#N [Compound 1-217]
4. Cc1onc(-c2ccccc2)c1C(=O)c1sc(NC2CCCC2)c(C#N)c1N [Compound 1-61]
5. N#Cc1c(Nc2ccc(Oc3ccccc3)cc2)sc(C(N)=O)c1N [Compound 1-197]

Result string:
["< 10 µM", "< 10 µM", "< 10 µM", "< 10 µM", "> 10 µM"]

Please give IC50 for each item listed below.
1. CC(C)Nc1sc(C(=O)c2ccc(Oc3ccccc3)cc2)c(N)c1C#N [Compound 1-230]
2. COc1ccc(Nc2sc(C(=O)c3cc(OC)ccc3OC)c(N)c2C#N)cc1 [Compound 1-93]
3. COc1ccc(Nc2sc(C(=O)c3cccc(Cl)c3)c(N)c2C#N)cc1 [Compound 1-117]
4. N#Cc1c(NCC2CC2)sc(C(=O)c2cc(-c3ccccc3)no2)c1N [Compound 1-206]

Result string:
["< 10 µM", "< 10 µM", "< 10 µM", "> 10 µM"]

Please give IC50 for each item listed below.
1. N#Cc1c(Nc2ccc(C(=O)NC3CCOC3=O)cc2)sc(C(=O)c2ccc(-c3ccccn3)s2)c1N (stereo not shown) [Compound 1-77]
2. COc1ccc(C(=O)c2sc(NC3CCOC3=O)c(C#N)c2N)c(OC)c1 (stereo not shown) [Compound 1-44]
3. COc1ccc(OC)c(C(=O)c2sc(Nc3ccc4c(c3)CCC4)c(C#N)c2N)c1 [Compound 1-94]
4. COc1ccc(OC)c(C(=O)c2sc(Nc3ccc(Oc4ccccc4)cc3)c(C#N)c2N)c1 [Compound 1-96]
5. COc1cccc(C(=O)c2sc(Nc3ccccc3)c(C#N)c2N)c1 [Compound 1-33]

Result string:
1: < 10 µM; 2: > 10 µM; 3: < 10 µM; 4: > 10 µM; 5: < 10 µM

Please give IC50 for each item listed below.
1. CCOC(=O)c1cc(C(=O)c2sc(Nc3ccc(C(=O)NC4CCOC4=O)cc3)c(C#N)c2N)on1 (stereo not shown) [Compound 1-138]
2. N#Cc1c(NC2CCCC2)sc(C(=O)c2ccc(Cl)cc2)c1N [Compound 1-182]
3. CC(C)CNc1sc(C(=O)c2cc(-c3ccccc3)no2)c(N)c1C#N [Compound 1-209]

Result string:
1: < 10 µM; 2: > 10 µM; 3: < 10 µM
